# Tgt: T1, Human GDF15 native: naturally produced human GDF15 purchased from Peprotech (human, UniProt Q99988 195-308)
# T1 construct: Bought protein
# T1 sequence: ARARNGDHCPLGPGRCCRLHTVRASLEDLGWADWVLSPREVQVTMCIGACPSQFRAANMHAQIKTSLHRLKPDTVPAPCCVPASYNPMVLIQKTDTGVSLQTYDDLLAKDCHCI
# Protocol notes: Biacore SPR, IgG captured via anti-human Fc, GDF15 in flow
Parameter: koff (s⁻¹)
State just the number; it will be interpreted in s⁻¹.

Prompt line: Looking for the measured koff of ABGDF15-G (antibody, human IgG1, kappa, V domains shown, captured through anti-human Fc in the Biacore assay) VH: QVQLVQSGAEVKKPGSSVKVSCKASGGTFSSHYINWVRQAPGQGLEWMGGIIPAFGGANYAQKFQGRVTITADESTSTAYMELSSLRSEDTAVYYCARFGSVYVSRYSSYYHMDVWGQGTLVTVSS VL: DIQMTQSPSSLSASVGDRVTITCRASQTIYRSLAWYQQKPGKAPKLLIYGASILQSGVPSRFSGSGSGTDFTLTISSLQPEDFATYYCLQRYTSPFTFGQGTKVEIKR , can you help?
Response line: 0.000512
